test: coupled detection enzyme interference, dose response, artefact control for MgcRacGAP inhibitor project, biochemical, coupled enzyme counter-screen (AID 624351); settings: ADP Hunter coupled enzyme counter-screen, fluorescence, no MgcRacGAP; series mostly up to 80 µM;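 further: signal is the ADP detection kit reading of free GDP without any GAP enzyme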
Screen size: about 2,400 compounds; about 1,400 (58%) were called active.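 How the source made its calls: active means inhibition of 30% or more at any tested dose; inconclusive means primary hits over the limit that were never retested; inactive means the rest.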 So high a share suggests a set chosen from earlier hits. Some of the results follow.
Select the correct class. Options are active, inactive and nothing else.

Observe how each entry below is paired with its result.
INSERT INTO measurements (compound, class) VALUES
  ('CC(C)NCC(=O)Nc1c2c(nc3ccccc13)CCC2', 'inactive'),
  ('Cc1ccc(N2C(S)=C(C#N)C(=O)NC2c2cccs2)cc1 (configuration not stated)', 'inactive'),
  ('CN(c1ccccc1)c1ccc(/C=C/[N+](=O)[O-])cc1', 'inactive'),
  ('COc1cc(C)c(N)cc1C(C)C', 'active'),
  ('CC(CCN1CCN(CCO)CC1)c1ccccc1 (configuration not stated)', 'inactive');

Ask: Tell me the assay call for CC1=NN(c2ccccc2)C(=O)/C1=C/C=C/c1ccc(N(C)C)cc1 please.
Reply: inactive

Ask: Tell me the assay call for COc1cccc2[nH]c(C(=O)NN)c(N)c12 please.
Reply: inactive

Reference source: PubChem BioAssay AID624351
